Molecular target: T1, Biotinylated human PD-L1 (R&D Systems) (human, UniProt Q9NZQ7 19-239, limits assumed, biotinylated (site not stated))
T1 construct: Bought reagent, loaded on a streptavidin biosensor tip for bio-layer interferometry
T1 sequence (Q9NZQ7 19-239 limits assumed): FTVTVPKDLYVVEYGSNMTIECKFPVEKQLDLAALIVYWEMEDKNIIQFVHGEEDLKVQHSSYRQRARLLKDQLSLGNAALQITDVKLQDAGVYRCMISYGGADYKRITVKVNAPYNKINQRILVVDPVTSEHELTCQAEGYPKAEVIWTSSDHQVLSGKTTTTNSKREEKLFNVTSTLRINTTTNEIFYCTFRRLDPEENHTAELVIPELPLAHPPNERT
Test: bio-layer interferometry (BLItz), biotinylated PD-L1 on streptavidin tip, peptide in solution; negative control; scrambled peptide, negative control
observation type: Kd

                                     binder  recorded_measurement
0  VLIKIPWLRLPGCGTQ (Negative control in BLI; also called scrambled peptide) [PD-L1ip3SC (scrambled analogue of PD-L1ip3)]                ~50 mM
